MEASURED_ATTRIBUTE: melting point (°C)

See these solved cases before continuing.
MOLECULE	melting point, °C
Nc1ncc(-c2ccc(=O)[nH]n2)c(-c2cccs2)n1	265
CN1CC=C(c2cccc3[nH]ccc23)CC1	164
COc1cccc(Cn2c(C(=O)O)c(-c3ccc(C(=O)NC4CC4)cc3)c3ccccc32)c1	237
CNC(=O)Nc1ccc2c(c1)OC(C)(CCl)O2 (stereo not given)	156

P. Cn1nc(-c2cnc(N)nc2-c2cccc(F)c2)ccc1=O
Q. Cc1cc2cnnc(OCc3ccccc3)c2n1Cc1ccccc1
Inquiry: Compare reported melting point values for P and Q . Which is lower? # respond with the chosen item's label
Reply text: Q
(Q: 124 °C, P: 212 °C)
